Reported pIC50 values are given for each entry in this list.
# Study target: Prokaryotic system (prokaryotic ribosome)
# Assay info: Prokaryotic translation inhibition, coupled transcription/translation, luciferase detection
# Assay type: biochemical
# Condition label: Table 3; read-out: Translation Inhibition IC50^Pro
In simple prose, pIC50 is minus the logarithm base ten of a concentration in moles per litre.

{"Compound": "NC[C@H]1O[C@@H](O[C@@H]2C(O)[C@H](N)CC(N)[C@H]2O[C@H]2OC(CO)[C@@H](O)[C@H](O)C2N)C(O)[C@H]1O (stereo partly drawn) [NB30, reference compound]", "pIC50": 6.34}
{"Compound": "C[C@@H](O)C1O[C@H](O[C@@H]2C(N)C[C@@H](N)C(O)[C@H]2O[C@@H]2O[C@H]([C@@H](C)N)[C@H](O)C2O)C(N)[C@@H](O)[C@@H]1O (stereo partly drawn)", "pIC50": 5.73}
{"Compound": "CC(N)C1OC(OC2C(O)C(NC(=O)C(O)CCN)CC(N)C2OC2OC(C(C)O)C(O)C(O)C2N)C(O)C1O (stereo not drawn)", "pIC50": 5.76}
{"Compound": "C[C@@H](N)[C@H]1O[C@@H](O[C@@H]2[C@@H](O)[C@H](NC(=O)[C@@H](O)CCN)C[C@H](N)[C@H]2O[C@H]2O[C@H]([C@@H](C)O)[C@@H](O)[C@H](O)[C@H]2N)[C@H](O)[C@@H]1O", "pIC50": 5.76}
{"Compound": "C[C@H](N)[C@H]1O[C@@H](OC2C(O)[C@H](NC(=O)[C@@H](O)CCN)CC(N)[C@H]2O[C@H]2OC(CO)[C@@H](O)C(O)C2N)C(O)C1O (stereo partly drawn)", "pIC50": 5.64}

In: Fill blank: measured pIC50 of the compound C[C@H](N)[C@H]1O[C@@H](OC2C(O)[C@H](N)CC(N)[C@H]2O[C@H]2OC([C@@H](C)O)[C@@H](O)C(O)C2N)C(O)C1O (stereo partly drawn) is ____.
Out: 5.96

====

# Study target: Prokaryotic system (prokaryotic ribosome)
# Assay info: Prokaryotic translation inhibition, coupled transcription/translation, luciferase detection
# Format: biochemical
# Condition label: Table 1; read-out: Translation inhibition Prokaryotic system IC50
pIC50: −log10 of the molar value.
Entry flag: Met if pIC50 reaches 6; Not met if it does not.

Reference set, count: 5
{"Molecule": "C[C@@H](N)[C@H]1O[C@@H](OC2C(O)[C@H](N)CC(N)[C@H]2O[C@H]2OC(CO)[C@@H](O)C(O)C2N)C(O)C1O (stereo partly shown) [NB119]", "Class label": "Not met"}
{"Molecule": "NC[C@H]1O[C@@H](O[C@@H]2C(O)[C@H](N)CC(N)[C@H]2O[C@H]2OC(CO)[C@@H](O)[C@H](O)C2N)C(O)[C@H]1O (stereo partly shown) [NB30, reference compound]", "Class label": "Met"}
{"Molecule": "NCC[C@H](O)C(=O)N[C@@H]1CC(N)[C@@H](O[C@H]2OC(CO)[C@@H](O)[C@H](O)C2N)[C@H](O[C@@H]2O[C@H](CN)[C@H](O)C2O)C1O (stereo partly shown) [NB54, reference compound]", "Class label": "Met"}
{"Molecule": "NC[C@@H]1O[C@H](O[C@H]2[C@@H](O)[C@H](O[C@@H]3[C@@H](O)[C@H](N)C[C@H](N)[C@H]3O[C@H]3O[C@H](CO)[C@@H](O)[C@H](O)[C@H]3N)O[C@@H]2CO)[C@H](N)[C@@H](O)[C@@H]1O [Paromomycin, reference compound]", "Class label": "Met"}
{"Molecule": "C[C@H](N)[C@H]1O[C@@H](OC2C(O)[C@H](NC(=O)[C@@H](O)CCN)CC(N)[C@H]2O[C@H]2OC(CO)[C@@H](O)C(O)C2N)C(O)C1O (stereo partly shown) [NB122]", "Class label": "Not met"}

Would you kindly look at the next entry?
In: Does the reported pIC50 for C[C@H](N)[C@H]1O[C@@H](OC2C(O)[C@H](N)CC(N)[C@H]2O[C@H]2OC(CO)[C@@H](O)C(O)C2N)C(O)C1O (stereo partly shown) [NB118] fall at or above the 6 mark?
Out: Not met

====

# Assay info: Cell toxicity LC50 in HEK-293 cells
# Format: cell-based
# Condition label: human, HEK-293 cells; Table 2; read-out: Cell toxicity LC50 HEK-293
Reported CC50 values are given for each entry in this list.

Use the examples below as a reference point.
{"Compound": "C[C@@H](O)C1O[C@H](O[C@@H]2C(N)C[C@@H](NC(=O)[C@@H](O)CCN)[C@@H](O)C2O[C@@H]2O[C@H](CN)[C@H](O)C2O)[C@@H](N)C(O)[C@@H]1O (stereo partly drawn) [NB84, reference compound]", "Reported": "5.77 mM"}
{"Compound": "C[C@@H](O)C1O[C@H](O[C@@H]2C(N)C[C@@H](N)[C@@H](O)C2O[C@@H]2O[C@H](CN)[C@H](O)C2O)[C@@H](N)C(O)[C@@H]1O (stereo partly drawn) [NB74, reference compound]", "Reported": "22.2 mM"}

In: Fill blank: measured CC50 of the compound C[C@H](N)[C@H]1O[C@@H](OC2C(O)[C@H](N)CC(N)[C@H]2O[C@H]2OC([C@@H](C)O)[C@@H](O)C(O)C2N)C(O)C1O (stereo partly drawn) [NB124] is ____.
Out: 5.4 mM

====

# Test system: Eukaryotic system (eukaryotic cytoplasmic ribosome)
# Assay info: Eukaryotic translation inhibition, coupled transcription/translation, luciferase detection
# Assay type: biochemical
# Condition label: ratio of eukaryotic to prokaryotic translation inhibition IC50
Value type: Prokaryotic versus Eukaryotic selectivity IC50^Euk/IC50^Pro

In: Fill blank: measured Prokaryotic versus Eukaryotic selectivity IC50^Euk/IC50^Pro of the compound `C[C@@H](N)[C@H]1O[C@@H](O[C@@H]2[C@@H](O)[C@H](NC(=O)[C@@H](O)CCN)C[C@H](N)[C@H]2O[C@H]2O[C@H]([C@@H](C)O)[C@@H](O)[C@H](O)[C@H]2N)[C@H](O)[C@@H]1O` is ____.
Out: 0.5

In: Fill blank: measured Prokaryotic versus Eukaryotic selectivity IC50^Euk/IC50^Pro of the compound C[C@@H](N)[C@H]1O[C@@H](OC2C(O)[C@H](NC(=O)[C@@H](O)CCN)CC(N)[C@H]2O[C@H]2OC(CO)[C@@H](O)C(O)C2N)C(O)C1O (some centres unmarked) is ____.
Out: 5.7

====

# System: Eukaryotic system (eukaryotic cytoplasmic ribosome)
# Assay info: Eukaryotic translation inhibition, coupled transcription/translation, luciferase detection
# Type: biochemical
# Condition label: ratio of eukaryotic to prokaryotic translation inhibition IC50
Value type: Prokaryotic versus Eukaryotic selectivity IC50^Euk/IC50^Pro
Lab note: record just the number, no unit beside it.

{"Compound": "C[C@H](N)[C@H]1O[C@@H](OC2C(O)[C@H](N)CC(N)[C@H]2O[C@H]2OC(CO)[C@@H](O)C(O)C2N)C(O)C1O (stereo partly drawn)", "Reported": 7.9}

In: Fill blank: measured Prokaryotic versus Eukaryotic selectivity IC50^Euk/IC50^Pro of the compound NCC[C@H](O)C(=O)N[C@@H]1CC(N)[C@@H](O[C@H]2OC(CO)[C@@H](O)[C@H](O)C2N)[C@H](O[C@@H]2O[C@H](CN)[C@H](O)C2O)C1O (stereo partly drawn) [NB54, reference compound] is ____.
Out: 151

====

# Assay info: Cell toxicity LC50 in HEK-293 cells
# Format: cell-based
# Condition label: human, HEK-293 cells; Table 1; read-out: Cell toxicity LC50 HEK-293
# Experimental: In order to ensure suitable cell viability for each of the tested compounds at the concentrations tested, cell toxicity was evaluated for each compound by measuring the half-maximal-lethal concentration value (LC50 values) in HEK-293 and HFF (human foreskin fibroblasts) cells. […]
// assign satisfied if CC50 falls strictly below 10 mM, else not satisfied (ties count as not satisfied)

{"Molecule": "C[C@@H](N)[C@H]1O[C@@H](OC2C(O)[C@H](N)CC(N)[C@H]2O[C@H]2OC(CO)[C@@H](O)C(O)C2N)C(O)C1O (stereo partly drawn) [NB119]", "Class label": "not satisfied"}
{"Molecule": "C[C@H](N)[C@H]1O[C@@H](OC2C(O)[C@H](N)CC(N)[C@H]2O[C@H]2OC(CO)[C@@H](O)C(O)C2N)C(O)C1O (stereo partly drawn) [NB118]", "Class label": "not satisfied"}
{"Molecule": "C[C@@H](N)[C@H]1O[C@@H](OC2C(O)[C@H](NC(=O)[C@@H](O)CCN)CC(N)[C@H]2O[C@H]2OC(CO)[C@@H](O)C(O)C2N)C(O)C1O (stereo partly drawn) [NB123]", "Class label": "not satisfied"}
{"Molecule": "NC[C@H]1O[C@@H](O[C@@H]2C(O)[C@H](N)CC(N)[C@H]2O[C@H]2OC(CO)[C@@H](O)[C@H](O)C2N)C(O)[C@H]1O (stereo partly drawn) [NB30, reference compound]", "Class label": "not satisfied"}

In: # check: CC50 < 10 mM for NCC[C@H](O)C(=O)N[C@@H]1CC(N)[C@@H](O[C@H]2OC(CO)[C@@H](O)[C@H](O)C2N)[C@H](O[C@@H]2O[C@H](CN)[C@H](O)C2O)C1O (stereo partly drawn) [NB54, reference compound]
Out: satisfied

# credit: patent US11865128B2
